Molecular target: Nav 1.7 (Homo sapiens (Human), UniProt Q15858)
Sequence (Q15858 whole entry): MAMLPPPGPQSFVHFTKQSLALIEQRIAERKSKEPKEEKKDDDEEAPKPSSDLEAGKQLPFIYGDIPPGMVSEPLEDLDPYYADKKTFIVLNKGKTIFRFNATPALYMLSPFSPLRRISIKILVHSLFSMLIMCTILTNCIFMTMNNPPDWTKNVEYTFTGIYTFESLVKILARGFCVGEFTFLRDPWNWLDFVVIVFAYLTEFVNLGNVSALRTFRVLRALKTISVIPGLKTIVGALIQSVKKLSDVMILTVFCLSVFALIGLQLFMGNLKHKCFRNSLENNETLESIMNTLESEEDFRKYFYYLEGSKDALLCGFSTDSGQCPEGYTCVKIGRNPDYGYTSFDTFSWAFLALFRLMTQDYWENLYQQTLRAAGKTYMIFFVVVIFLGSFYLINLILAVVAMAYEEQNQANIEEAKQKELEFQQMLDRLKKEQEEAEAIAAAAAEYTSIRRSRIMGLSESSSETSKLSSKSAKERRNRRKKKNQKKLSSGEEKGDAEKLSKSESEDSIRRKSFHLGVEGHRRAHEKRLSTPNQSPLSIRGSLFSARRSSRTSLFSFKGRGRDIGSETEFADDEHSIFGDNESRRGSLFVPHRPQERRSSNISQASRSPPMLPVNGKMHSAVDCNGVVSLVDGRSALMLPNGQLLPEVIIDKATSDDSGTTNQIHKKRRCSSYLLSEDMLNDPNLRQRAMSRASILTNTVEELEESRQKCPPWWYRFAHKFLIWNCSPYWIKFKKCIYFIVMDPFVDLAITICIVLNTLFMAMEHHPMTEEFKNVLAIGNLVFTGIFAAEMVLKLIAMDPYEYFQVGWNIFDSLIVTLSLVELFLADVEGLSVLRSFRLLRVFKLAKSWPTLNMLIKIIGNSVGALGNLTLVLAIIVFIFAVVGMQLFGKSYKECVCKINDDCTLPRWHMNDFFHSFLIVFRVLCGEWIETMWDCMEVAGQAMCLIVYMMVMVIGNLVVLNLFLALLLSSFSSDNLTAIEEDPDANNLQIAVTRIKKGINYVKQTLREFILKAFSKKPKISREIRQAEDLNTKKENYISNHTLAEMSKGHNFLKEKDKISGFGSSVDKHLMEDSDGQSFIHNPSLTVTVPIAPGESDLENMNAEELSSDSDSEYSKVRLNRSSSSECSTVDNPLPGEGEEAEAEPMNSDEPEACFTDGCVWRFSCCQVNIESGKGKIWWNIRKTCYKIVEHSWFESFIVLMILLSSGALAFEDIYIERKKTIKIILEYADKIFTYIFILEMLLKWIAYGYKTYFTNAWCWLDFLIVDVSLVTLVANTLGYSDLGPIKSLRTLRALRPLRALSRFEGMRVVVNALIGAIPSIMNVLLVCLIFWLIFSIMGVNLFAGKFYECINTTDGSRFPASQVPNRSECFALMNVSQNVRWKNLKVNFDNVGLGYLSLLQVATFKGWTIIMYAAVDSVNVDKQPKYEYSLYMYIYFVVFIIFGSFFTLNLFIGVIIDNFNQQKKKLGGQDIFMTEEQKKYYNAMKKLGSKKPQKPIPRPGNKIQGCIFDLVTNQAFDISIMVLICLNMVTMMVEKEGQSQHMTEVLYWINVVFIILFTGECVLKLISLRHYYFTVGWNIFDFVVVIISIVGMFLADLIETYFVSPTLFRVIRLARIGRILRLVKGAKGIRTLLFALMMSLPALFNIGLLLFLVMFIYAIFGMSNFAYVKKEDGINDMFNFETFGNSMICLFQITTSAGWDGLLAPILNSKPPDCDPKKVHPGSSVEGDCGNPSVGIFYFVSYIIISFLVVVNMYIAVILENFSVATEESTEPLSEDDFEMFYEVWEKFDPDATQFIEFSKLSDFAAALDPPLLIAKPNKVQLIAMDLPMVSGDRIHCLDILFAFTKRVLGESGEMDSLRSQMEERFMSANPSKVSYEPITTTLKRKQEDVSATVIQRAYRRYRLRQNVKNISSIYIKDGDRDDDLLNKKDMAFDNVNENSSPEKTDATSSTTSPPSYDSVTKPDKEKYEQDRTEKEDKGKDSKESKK
Experiment: in-vitro Nav 1.7 PX data
Assay type: cell-based
Conditions: in-vitro Nav 1.7 PX data
Each entry below carries its reported log10 IC50.
Record value = log10 of IC50 given in nM.

Guide cases for log10 IC50, answers given:
• Cc1ccc(Oc2ccccc2)cc1-c1nccc2cc(S(=O)(=O)Nc3ccncn3)ccc12 [Example 39] = 2.69
• COc1cc(C#N)c(-c2cc(F)cc(F)c2)cc1-c1nccc2cc(S(=O)(=O)Nc3ccncn3)ccc12 [Example 145] = 3.96
• COc1ncc(-c2ccccc2)cc1-c1nccc2cc(S(=O)(=O)Nc3ccncn3)ccc12 [Example 152] = 3.39
• COc1ccc(-c2ccc(C(F)(F)F)cc2)cc1-c1nccc2cc(S(=O)(=O)Nc3ccncn3)ccc12 [Example 147] = 1.86
• COc1cc(-c2ccccc2C)c(C#N)cc1-c1nccc2cc(S(=O)(=O)Nc3ccncn3)ccc12 [Example 157] = 2.31

// returns reported log10 IC50 for input COc1cc(-c2ccc(F)c(Cl)c2)c(C#N)cc1-c1nccc2cc(S(=O)(=O)Nc3ccncn3)ccc12 [Example 158]
1.29

// returns reported log10 IC50 for input O=S(=O)(Nc1ccon1)c1ccc2c(-c3ccc(-c4cccc(C(F)(F)F)c4)cc3CO)nccc2c1 [Example 146]
2.08
